Numbers sourced from the supplement of paper PMC10567573.

B1: COX4I1 (parent)
chain: FDKEWVAKQTKRMLDMKVNPIQGL

Variants of: B1
Experiment: protein stability index of a GFP-peptide fusion (GPS, HEK-293T) (PSI 1-6); higher = more stable;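 note: lentivirally expressed fusions sorted by FACS into six bins by GFP to DsRed ratio, PSI derived from sequencing read proportions per bin multiplied by bin number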
Conditions: c terminus: a fixed tail appended
In this section we review reported protein stability index values for a set of variants.
// print number alone

Please review the following examples before continuing.
Req: Quick one: protein stability index of V18M ?
Resp: 1.86

Req: Quick one: protein stability index of K17F ?
Resp: 2.16

Req: Quick one: protein stability index of D2G ?
Resp: 1.55

Req: Quick one: protein stability index of L24C ?
Resp: 2.19

Then this variant:
Req: Quick one: protein stability index of R12Y ?
Resp: 1.56
